Reference source for all entries: PubChem BioAssay (NCI)

- protocolDetails: NCI Yeast Anticancer Drug Screen. Data for the mec2-1 strain (AID 157)
- testConditions: S. cerevisiae mec2-1 strain, hits give high values; at 50.0 µM unless noted
Compounds without any hit were thinned out: in the full panel of roughly 79,000, 15% have a hit.
Is growth inhibition at least -10%? Then 1. If not, 0.

INPUT: Is reported growth inhibition greater than or equal to -10% here: N#CCCC(CC#N)N1CCN(CCO)CC1 (configuration not stated)
OUTPUT: 0

INPUT: Is reported growth inhibition greater than or equal to -10% here: Cc1ccc(C)c(NC(=O)NC(C)(C)C)c1
OUTPUT: 0

INPUT: Is reported growth inhibition greater than or equal to -10% here: O=C(O)C(NCCCCCNC(C(=O)O)c1ccccc1)c1ccccc1 (configuration not stated)
OUTPUT: 1

INPUT: Is reported growth inhibition greater than or equal to -10% here: COc1ccc(/C(=N\NC(=S)NN)C(c2ccc(OC)cc2)C2C(=O)Oc3ccccc32)cc1 (configuration not stated)
OUTPUT: 1

INPUT: Is reported growth inhibition greater than or equal to -10% here: CCCCCCCCCCCCCCCCCCCCCCCCCCO
OUTPUT: 0

INPUT: Is reported growth inhibition greater than or equal to -10% here: CCCOC(=O)N(C)c1ccccc1
OUTPUT: 0

INPUT: Is reported growth inhibition greater than or equal to -10% here: CNC(=O)N(C)Cc1ccccc1
OUTPUT: 0

INPUT: Is reported growth inhibition greater than or equal to -10% here: Cc1ccc2nc(NC(=O)C(=O)C(C#N)c3nc4ccccc4s3)sc2c1 (configuration not stated)
OUTPUT: 1

INPUT: Is reported growth inhibition greater than or equal to -10% here: CCCCCCCC/C=C\CCCCCCCC(=O)NC(C)(C)C(=O)O
OUTPUT: 0

INPUT: Is reported growth inhibition greater than or equal to -10% here: COCCC(=O)OCCC(C)OC (configuration not stated)
OUTPUT: 1

INPUT: Is reported growth inhibition greater than or equal to -10% here: CCc1ccc2c(c1)C(O)(C#Cc1ccccc1)c1cc(CC)ccc1C2(O)C#Cc1ccccc1 (configuration not stated)
OUTPUT: 1

INPUT: Is reported growth inhibition greater than or equal to -10% here: CC(c1cccc(O)c1)N(C)C (configuration not stated)
OUTPUT: 1
